# Test system: GSK3A
# conditionNotes: concentration: 1 μM, replicates: in singlicate; n = 1;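 note: KINOMEscan kinase panel screen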
Measured %Inh by item
observationType: %Inh (%)

| molecule | readoutValue |
| --- | --- |
| Cc1nccc(-c2c(-c3ccc(F)cc3)ncn2CCCN2CCOCC2)n1.Cl [SB-282975] | 23 |
| Cc1ccc(NC(=O)Nc2ccc(Cl)c(C(F)(F)F)c2)cc1-c1ccc(C(=O)Nc2ccncc2)cc1 [GSK1398470] | 21 |
| Cc1ccc(NC(=O)Nc2ccc(Cl)cc2)cc1-c1ccc(C(=O)Nc2ccncc2)cc1 [GSK1398472] | 0 |
| CCn1c(-c2ccccc2)nc2cnccc21 [SB-733416] | 0 |
| O=C(Nc1n[nH]c2nc(-c3ccco3)c(Br)cc12)C1CCN(Cc2ccccc2)C1.O=C(O)[C@H](O)[C@@H](O)C(=O)O (stereo not drawn) [SB-742034] | 97.8 |
| Cn1cnc2c(N)ncnc21 [SKF-97623] | 0 |
| CNc1nc(-c2ccc3c(N)n[nH]c3c2)cc(N2C[C@@H](C(=O)NC3CCCCC3)OC[C@H]2C)n1 [GSK2375584] | 10 |
| CC(=O)c1c(C)c2cnc(Nc3ccc(N4CCNCC4)cn3)nc2n(C2CCCC2)c1=O | 0 |
| Fc1ccc(-c2nn3cccc(F)c3c2-c2ccncc2)cc1 [GW475620] | 0 |

----------
Quick reference: %Inh of the listed items.
# Test system: INSRR
# conditionNotes: concentration: 1 μM, replicates: in singlicate; n = 1

| compoundSmiles | experimentalTarget | %Inh (%) |
| --- | --- | --- |
| Cc1c(Cn2c3ccccc3n3c(=O)cc(N4CCOCC4)nc23)cccc1C(F)(F)F | INSRR | 11 |
| Nc1ncnc2occ(-c3ccc4c(c3)CCN4C(=O)Cc3cc(F)ccc3F)c12 | INSRR | 0 |
| Nc1cccc(-c2ccc3c(N)n[nH]c3c2)n1 | INSRR | 0 |
| Cc1nccc(-c2c(-c3ccc(F)cc3)ncn2CCCN2CCOCC2)n1.Cl | INSRR | 11 |
| COc1ccc(-c2coc3ccc(-c4nnc(C)o4)cc23)cc1 | INSRR | 0 |

----------
Catalogue of %Inh readings, one per entry.
# System: CDC2L5
# Construct: gene CDK13
# conditionNotes: concentration: 1 μM, replicates: in singlicate; n = 1

| compound | readoutUnit | %Inh |
| --- | --- | --- |
| COc1ccc(CSc2nnc(-c3ccc4c(c3)CCO4)o2)cc1 | % | 90 |
| Cc1ccc(NC(=O)Nc2ccc(Cl)c(C(F)(F)F)c2)cc1-c1ccc(C(=O)Nc2ccncc2)cc1 | % | 0 |
| COc1ccc(CSc2nnc(-c3ccc4ncsc4c3)o2)cc1C(F)(F)F | % | 35 |
| CS(=O)(=O)CCNCc1nc(-c2ccc3ncnc(Nc4ccc5c(cnn5Cc5ccccc5)c4)c3c2)cs1.Cl.Cl | % | 0 |
| COC(=O)C(NC(=O)NC1CCN(c2ccnc(Nc3ccc(F)cc3)n2)C1)c1ccccc1 (stereo not drawn) | % | 0 |
| Cn1cnc2c(N)ncnc21 | % | 0 |
| CC(=O)c1c(C)c2cnc(Nc3ccn(C)n3)nc2n(C2CCCC2)c1=O | % | 0 |
| O=C(Nc1n[nH]c2nc(-c3cccs3)c(Br)cc12)C1CCCC1 | % | 13 |
| CC(C)c1ccc(O)cc1Nc1ccnc2ccc(C(F)(F)F)cc12 | % | 0 |
